Experiment: protease stability score; higher = more stable; yeast display proteolysis, trypsin and chymotrypsin;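 also: log10 excess protease needed over predicted unfolded state with 0 meaning unfolded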
Decision: protease stability score compared against 1; not below it gives yes, below it gives no.

For orientation, consider the following solved cases.
>  <residue-string>
DEDDNKIAKEWYKAIQRGDPDRVKQLVDPNVKIRIGDKDIRGRENFATEVERMRDEIEVVFKVKDMKDQGDKANVEYEYQTQSNGRPRTKSQTVNVSMHNGHVKHVNVRDDQ

>  <cat>
no

$$$$
>  <residue-string>
DEEAHELWKKWQEAFKTGDPEQLHEMADKDARLRIGNKEIHGREKAVKQLVDERKEMHIDYRIRSYKFEGNRLTFTAHANARVNGQPYRYTVKMQFSFSNGRLKELQIRIPEEVMQELRN

>  <cat>
no

$$$$

Task: Is protease stability score for DEDEVEKIATTIKDVIQEGNFRQLEKLADPNAKVVIGDKTYRGRDAMRHAAQLLQQRADHITVQTVHVHGNKVEAHLRATVNGRDVHFVVKVTLENGRIKNMKIEYTDEDKFKEMVG at or above 1?
Result: yes

Task: Is protease stability score for DETAKKHFEELMKVWKHGDFRRAQELLDPNVRVVIGDQQFHGREDVAKKIAEHLHRMEVEIKDYRVKNDGEKIHIEVDAVFERNGRPERRRYVAVYRVHNGRFKEMSQQEDK at or above 1?
Result: yes

Task: Is protease stability score for DEEERLRTILKLFEEALKHNDEDRLRKLADKDVRMRVGDKEYRGKEKFADFMRKLRTKADKVRIQIKQVNIQGNHNTMDITLVFNVNGNNNRFKVNFVFDIRGDSLKLKSATVK at or above 1?
Result: yes

* * *

Experiment: protease stability score; higher = more stable; yeast display proteolysis, trypsin and chymotrypsin;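 also: log10 excess protease needed over predicted unfolded state with 0 meaning unfolded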
Record form. Attribute: protease stability score. Fill in for each entry.
One number for each entry.

>  <residue-string>
EERVNSVAEQFLDAVHTGDPNRVREQMDKDARMHVGDTTLHGRENMANHWKTLLDEMRITFHDYRIRVTGEEVEIRADVQYNHNGRPKRRVLTYTVEADNGKIHNWKVQEDS

>  <measured-quantity>
protease stability score

>  <number>
0.472

$$$$
>  <residue-string>
DEKKQAEDFFDTWVEIVKSGDEEKAQQMADPNVRFQIGDKSWRGREDFKKFLKTQLKRADHIRFEVQRITVRPNHIEVQFRIVIDNNGQDSRDTLTFVIKVNGDRLRLVEMHEG

>  <measured-quantity>
protease stability score

>  <number>
1.43

$$$$
>  <residue-string>
DEDKMKEIAKKFMDYLVNGHADEVRKMGKEGVRVHVGDTTIQGPDQLKEYVKKFKDQGVHNEYKEEEVKGDTITMHTKAQLGNAEVDFEVHYVVKGDKVEKFEVKTDKKQQEKFKKS

>  <measured-quantity>
protease stability score

>  <number>
-0.352

$$$$
>  <residue-string>
DEDAQKRAEEMMHALQNGDEKQIQTLFDKDAKVNVGDKEYHGKEQLAHDLKRRHDKIRVDYKDVHIRAHGDKVSLTFRVRVKINGVPADNSFQFTLKFRNGHVQSMSQQFDPKYEQDQRN

>  <measured-quantity>
protease stability score

>  <number>
-0.033

$$$$
>  <residue-string>
DEEKVNERFFTKMKKAHEHGDPDQLRTLFDPNVKVRYGDKSITGRENVVKHIKKLLDEADSVSIQLKRVRVSGNKFSFDVVVSFNINGKHDNQRVIIVAEQHNGHARVKSVQQK

>  <measured-quantity>
protease stability score

>  <number>
0.949

$$$$
>  <residue-string>
DQDAARIYKHQVEAIKTGNPSKVMELADPNVEFHVGDRVITGREQLRNDVDRHKKQMRVEIRIEDITDQGEFANIRANVTIDVNGRPKTSRVNMRVFAHNGKVKSQDFQTSQ

>  <measured-quantity>
protease stability score

>  <number>
0.52

$$$$
>  <residue-string>
DEENLRVVVHLMKAVETGDPTKARRNLDKDVHFNVGNRRIHGREQFQKELDDEKKDISINVKDYRVRDKNGKAHFTVRFVLEVNGRPMEMKITMQAEAHNGRIKHVQQQVSEEDEKRINK

>  <measured-quantity>
protease stability score

>  <number>
-0.094

$$$$
>  <residue-string>
DEHAKKLAERILEAISNNNEEDIQKNIDPNAKIQVGDRQVHGREDLQKQYQDFRHHARIQNRLRSVRADGDHVTLEIEVVFKVNGNPVNNTVNMSMVIENGRVKMREVQVPEEVQDTIDQ

>  <measured-quantity>
protease stability score

>  <number>
0.075

$$$$

Report protease stability score for every entry below.
1. DHKHLQEQARRLVDALVTGDPEEAANLADPNARARIGDKTIHGREQFRNAMQRFSNQADHVQVDHFTVQGDKVQVKMSINVNGQSFDVVMVARMDNGHIRHIRFDPDQIRQVQG
2. DESLRKLLERIWRALTSGDPDELRKLADEDAKFQIGDKRINGMNEAAERWATRVRQLRVRIEDVKQHVEGDKVEAHLDVVREKNGQPQKHEEHVRMRAEGDRAKELVIQISQ
3. DDSRRATEFNKQYREVFRTGDPRKFEDYMDPNARAHYGDKELHGREQLRNYWKELTDNADHLDVQIHHLHVSGDDVNVDFQWNIDVNGENVQRKVVIIARLENGQVRAKQIVEK
4. DEQKDEEIRRVIENNDWTEVKELADENVKASVGDKRYHGREEMEKFWKIVHDRADHIEYQDIHVHNGQFNAQVVINVNGQELDVQITMRAENGKITNMSIHATSEEVKERIKEMFS
5. DDEKLAREFQEKLREALRSGDDKKMVELMDKDARVVVGDKEIQGREEIAKTWATKATQADHVEVHIRNLRVENGRVTVNVEVRLNNNGQDRTNNNTLQNEVHNGHIHMKRQKEN
6. DETQDKKAERLVKKNNWDEMVRNADKDVRVQVGDYEVHGREDMKRLAKKFKDRYDHVKVDDVQVHNGRVNADMKATVDGHTIRFILQADIHNGRFKYMTLQARSSEQEKHLKRLFQ
7. DEHRQLEEVLSQIQDALRTNNPDDWADQADENAEFNIGDKSFSGREKVREYAETHMKDADHVSMDVRRVDVRNGRARVSARITAKVNGETKDVTYDMVFKFHNGQAKLVQMNES
8. DEEAAKKVKTLVEHGDFQQMARNFDEDARVVIGDRVVHGREQAIEAMRRFDEAVDHQEVKSVTSSGNKVKFNIQAHVDGKTVRMIVVIEMHNGKLKMVRFDATSEDLRRILKRSLG

Result:
1. 0.052
2. 0.031
3. -0.143
4. 0.73
5. -0.274
6. 0.475
7. 0.996
8. 1.27

Report protease stability score for every entry below.
1. DSEAAKRAETFIRNLVQGNEDELRDMADKDVNFQVGDKTVHGREQWQEEVSRTEKEARVEMRVDDYRDEPGTVKLNAKVTIEYNGQPFTVNLHVEIHFKNGKMQRAVFEIDPEVQKEVES
2. DERDANEMMRVIREGDFNKFRQMADENVSAVYGDKTVRGRETIKRIIHRIKRHVDHLKVDSLSTTGDHVTVDAVMHVNGQRVHFVMVVRVQNGHIKEVQFEVRNEEAQKRLEQVLS
3. DEEKLRKMVETLIQAVQNGNLEKIRQMVKENVEFTLGDKTYKGQEDALKIVKHLQQVGAEAHVERQEITGDEAKVKTQWHVGDHTMEVEVVYYVRDDKVEKVEINWSEEAKKAIKAG
4. DEELVKRLKKLLEALESGDEEKVHHMFDPNVRFQVGDKRFHGRERYASTVKREKDEMRNEVTSYRLTATGDKAEMSFRNILDENGSPHDDIQVMHVHVQGDKIKRASIQETR

Result:
0.692
1.18
1.17
0.071

Report protease stability score for every entry below.
1. DDEQDKKAEKLVNTGNFHDMANNADPNARIVVGDKRFHGREQFHTFMESLQTTIDHLQIKDIKRRPNHVEADVVAEVNGRRITFVILMVVHNGRIKNVEFKFRDEEDERVMEQILR
2. DEKKQQELAETFWKIFKTGDEEKLKQMMPQDVRARYGDKSVTGRDRIVTTIKKRVKRADHINVKHISVHNGKIHIDAVIVVDGRKQRDTINIKMRNGHIKNINVDPEKDKQNFS

Result:
0.947
-0.217
